Answer each item with its documented CC50.
- Test system: SK-MEL-5
- run_parameters: read-out: 50% lethal concentration (LC50); SK-MEL-5, Melanoma
Numbers only, in µM.

Some molecules with known CC50 results, for comparison:
C=C1CCC2C3(C)COC(c4cn(-c5ccccc5)nc4-c4cccc(F)c4)OC3CCC2(C)C1CC=C1C(=O)OCC1O (stereo not drawn)	5.51
C=C1CCC2C3(C)COC(c4cn(-c5ccccc5)nc4-c4ccc(Cl)cc4)OC3CCC2(C)C1CC=C1C(=O)OCC1O (stereo not drawn)	5.69

Exercise: Name the recorded CC50 for C=C1CCC2C3(C)COC(c4cn(-c5ccccc5)nc4-c4cccc([N+](=O)[O-])c4)OC3CCC2(C)C1CC=C1C(=O)OCC1O (stereo not drawn) .
Solution: 5.53

---

- Tested on: SF-268
- run_parameters: SF-268, CNS
assay_readout: Total growth inhibition (TGI) (µM)
Numbers only, in µM.

Examples with answers:
C=C1CCC2C3(C)COC(c4cn(-c5ccccc5)nc4-c4ccccc4)OC3CCC2(C)C1CC=C1C(=O)OCC1O (stereo not shown) [1a]	20.5
C=C1CCC2C3(C)COC(c4cn(-c5ccccc5)nc4-c4ccc(Br)cc4)OC3CCC2(C)C1CC=C1C(=O)OCC1O (stereo not shown) [1h]	4.68
C=C1CCC2C3(C)COC(c4cn(-c5ccccc5)nc4-c4cccc(Cl)c4)OC3CCC2(C)C1CC=C1C(=O)OCC1O (stereo not shown) [1d]	3.34
C=C1CCC2C3(C)COC(c4cn(-c5ccccc5)nc4-c4ccc(Cl)cc4)OC3CCC2(C)C1CC=C1C(=O)OCC1O (stereo not shown) [1g]	6.32
C=C1CCC2C3(C)COC(c4cn(-c5ccccc5)nc4-c4cccc(F)c4)OC3CCC2(C)C1CC=C1C(=O)OCC1O (stereo not shown) [1c]	5.61

List reported Total growth inhibition (TGI) for each of these molecules:
1. C=C1CCC2C3(C)COC(c4cn(-c5ccccc5)nc4-c4ccc(C)cc4)OC3CCC2(C)C1CC=C1C(=O)OCC1O (stereo not shown) [1i]
2. C=C1CCC2C3(C)COC(c4cn(-c5ccccc5)nc4-c4cccc(Br)c4)OC3CCC2(C)C1CC=C1C(=O)OCC1O (stereo not shown) [1e]
3. C=C1CCC2C3(C)COC(c4cn(-c5ccccc5)nc4-c4ccc(F)cc4)OC3CCC2(C)C1CC=C1C(=O)OCC1O (stereo not shown) [1f]
4. C=C1CCC2C3(C)COC(c4cn(-c5ccccc5)nc4-c4ccc(OC)cc4)OC3CCC2(C)C1CC=C1C(=O)OCC1O (stereo not shown) [1j]

Solution:
1: 7.58; 2: 4.26; 3: 5.63; 4: 3.6

---

Provide the recorded Total growth inhibition (TGI) for the entries that follow.
- System: U251
- run_parameters: U251, CNS
One number for each entry, in µM.

C=C1CCC2C3(C)COC(c4cn(-c5ccccc5)nc4-c4cccc(F)c4)OC3CCC2(C)C1CC=C1C(=O)OCC1O (stereo not drawn)	5.61
C=C1CCC2C3(C)COC(c4cn(-c5ccccc5)nc4-c4cccc([N+](=O)[O-])c4)OC3CCC2(C)C1CC=C1C(=O)OCC1O (stereo not drawn)	3.35

Exercise: Could you share which Total growth inhibition (TGI) value was measured for C=C1CCC2C3(C)COC(c4cn(-c5ccccc5)nc4-c4ccc(F)cc4)OC3CCC2(C)C1CC=C1C(=O)OCC1O (stereo not drawn) ?
Solution: 5.63

---

- System: SK-MEL-2
- run_parameters: SK-MEL-2, Melanoma
assay_readout: Total growth inhibition (TGI) (µM)
Answers are plain numbers, in µM.

Here are 6 compounds together with their reported answers.
C=C1CCC2C3(C)COC(c4cn(-c5ccccc5)nc4-c4cccc(Cl)c4)OC3CCC2(C)C1CC=C1C(=O)OCC1O (stereo not shown)	3.05
C=C1CCC2C3(C)COC(c4cn(-c5ccccc5)nc4-c4ccc(F)cc4)OC3CCC2(C)C1CC=C1C(=O)OCC1O (stereo not shown)	3.1
C=C1CCC2C3(C)COC(c4cn(-c5ccccc5)nc4-c4cccc(F)c4)OC3CCC2(C)C1CC=C1C(=O)OCC1O (stereo not shown)	3.29
C=C1CCC2C3(C)COC(c4cn(-c5ccccc5)nc4-c4ccc(Cl)cc4)OC3CCC2(C)C1CC=C1C(=O)OCC1O (stereo not shown)	3.25
C=C1CCC2C3(C)COC(c4cn(-c5ccccc5)nc4-c4cccc(Br)c4)OC3CCC2(C)C1CC=C1C(=O)OCC1O (stereo not shown)	3.38
C=C1CCC2C3(C)COC(c4cn(-c5ccccc5)nc4-c4ccc(C)cc4)OC3CCC2(C)C1CC=C1C(=O)OCC1O (stereo not shown)	3.28

Then there is this compound:
Exercise: Form field: reported Total growth inhibition (TGI) of C=C1CCC2C3(C)COC(c4cn(-c5ccccc5)nc4-c4ccc(Br)cc4)OC3CCC2(C)C1CC=C1C(=O)OCC1O (stereo not shown)
Solution: 3.18

---

Provide the reported CC50 of each item.
- System: SF-539
- run_parameters: read-out: 50% lethal concentration (LC50); SF-539, CNS
Answers are plain numbers, in µM.

Take a look at these entries with their results.
C=C1CCC2C3(C)COC(c4cn(-c5ccccc5)nc4-c4cccc([N+](=O)[O-])c4)OC3CCC2(C)C1CC=C1C(=O)OCC1O (stereo not shown)	5.79
C=C1CCC2C3(C)COC(c4cn(-c5ccccc5)nc4-c4ccccc4)OC3CCC2(C)C1CC=C1C(=O)OCC1O (stereo not shown)	5.77
C=C1CCC2C3(C)COC(c4cn(-c5ccccc5)nc4-c4ccc(Cl)cc4)OC3CCC2(C)C1CC=C1C(=O)OCC1O (stereo not shown)	5.66
C=C1CCC2C3(C)COC(c4cn(-c5ccccc5)nc4-c4ccc(F)cc4)OC3CCC2(C)C1CC=C1C(=O)OCC1O (stereo not shown)	5.65
C=C1CCC2C3(C)COC(c4cn(-c5ccccc5)nc4-c4ccc(OC)cc4)OC3CCC2(C)C1CC=C1C(=O)OCC1O (stereo not shown)	5.7
C=C1CCC2C3(C)COC(c4cn(-c5ccccc5)nc4-c4cccc(Br)c4)OC3CCC2(C)C1CC=C1C(=O)OCC1O (stereo not shown)	5.74
C=C1CCC2C3(C)COC(c4cn(-c5ccccc5)nc4-c4ccc(Br)cc4)OC3CCC2(C)C1CC=C1C(=O)OCC1O (stereo not shown)	5.73
C=C1CCC2C3(C)COC(c4cn(-c5ccccc5)nc4-c4cccc(Cl)c4)OC3CCC2(C)C1CC=C1C(=O)OCC1O (stereo not shown)	5.57

Batch of 2 compounds: report CC50 for each.
1. C=C1CCC2C3(C)COC(c4cn(-c5ccccc5)nc4-c4cccc(F)c4)OC3CCC2(C)C1CC=C1C(=O)OCC1O (stereo not shown)
2. C=C1CCC2C3(C)COC(c4cn(-c5ccccc5)nc4-c4ccc(C)cc4)OC3CCC2(C)C1CC=C1C(=O)OCC1O (stereo not shown)

Solution:
1: 5.68; 2: 5.7

---

- Test system: RPMI-8226
- run_parameters: RPMI-8226, Leukemia
Exercise: state measured Total growth inhibition (TGI) for each of the compounds provided.

C=C1CCC2C3(C)COC(c4cn(-c5ccccc5)nc4-c4ccc(Cl)cc4)OC3CCC2(C)C1CC=C1C(=O)OCC1O (stereo not drawn)	> 100 µM
C=C1CCC2C3(C)COC(c4cn(-c5ccccc5)nc4-c4cccc([N+](=O)[O-])c4)OC3CCC2(C)C1CC=C1C(=O)OCC1O (stereo not drawn)	> 100 µM
C=C1CCC2C3(C)COC(c4cn(-c5ccccc5)nc4-c4ccc(C)cc4)OC3CCC2(C)C1CC=C1C(=O)OCC1O (stereo not drawn)	> 100 µM
C=C1CCC2C3(C)COC(c4cn(-c5ccccc5)nc4-c4ccc(OC)cc4)OC3CCC2(C)C1CC=C1C(=O)OCC1O (stereo not drawn)	> 100 µM
C=C1CCC2C3(C)COC(c4cn(-c5ccccc5)nc4-c4ccccc4)OC3CCC2(C)C1CC=C1C(=O)OCC1O (stereo not drawn)	8.62 µM

Exercise: What value of measured Total growth inhibition (TGI) is listed for C=C1CCC2C3(C)COC(c4cn(-c5ccccc5)nc4-c4ccc(F)cc4)OC3CCC2(C)C1CC=C1C(=O)OCC1O (stereo not drawn) ?
Solution: > 100 µM

---

- Test system: HT29
- run_parameters: HT29, Colon
Class (required): determined from Total growth inhibition (TGI); valid ranges are b0 = under 4 µM, b1 = from 4 µM up to 5 µM, b2 = 5 µM and over

C=C1CCC2C3(C)COC(c4cn(-c5ccccc5)nc4-c4ccccc4)OC3CCC2(C)C1CC=C1C(=O)OCC1O (stereo not shown) [1a]	b2

Exercise: Lab log: C=C1CCC2C3(C)COC(c4cn(-c5ccccc5)nc4-c4ccc(OC)cc4)OC3CCC2(C)C1CC=C1C(=O)OCC1O (stereo not shown) [1j] — assign Total growth inhibition (TGI) category
Solution: b0

Exercise: Just checking, what class would you give C=C1CCC2C3(C)COC(c4cn(-c5ccccc5)nc4-c4cccc(Cl)c4)OC3CCC2(C)C1CC=C1C(=O)OCC1O (stereo not shown) [1d] here?
Solution: b0

Exercise: Please classify: C=C1CCC2C3(C)COC(c4cn(-c5ccccc5)nc4-c4cccc([N+](=O)[O-])c4)OC3CCC2(C)C1CC=C1C(=O)OCC1O (stereo not shown) [1b]
Solution: b1

Exercise: Hi there! Could you help me figure out the category for C=C1CCC2C3(C)COC(c4cn(-c5ccccc5)nc4-c4cccc(Br)c4)OC3CCC2(C)C1CC=C1C(=O)OCC1O (stereo not shown) [1e] please?
Solution: b0

Exercise: Hi, small favor: classify C=C1CCC2C3(C)COC(c4cn(-c5ccccc5)nc4-c4ccc(C)cc4)OC3CCC2(C)C1CC=C1C(=O)OCC1O (stereo not shown) [1i] by its Total growth inhibition (TGI) when you get a moment.
Solution: b1
